System: Mus musculus
MEASUREMENT_NOTES: In vivo nicotinic antagonism relative to (+/-)-exo-mecamylamine measured in mice
Type: functional
Recorded Relative potency, one value per entry.
Please state the value as a number alone, without comment.

CNC1(C)C2CCC(C2)C1(C)C (single isomer, unassigned; (-)) [MECAMYLAMINE] = 1.4

Then there is this compound:
Give the reported Relative potency for CN(C)C1CC2CCC1(C)C2(C)C (racemic) (system: Mus musculus).
10.5

====

Recorded logP for the following molecules
MEASUREMENT_NOTES: Partition coefficient (logP)
Type: physicochemical
CONDITION_CONTEXT: octanol/water; read-out: logP
Form: value (number only, do not type unit).

Examples with answers:
CCNC1C2CCC(C2)C1c1ccccc1 (racemic) = 4.15
CN[C@H]1C2(C)CCC(C2)C1(C)C (single isomer, unassigned; (-)) = 3.53
CN[C@@H]1C2(C)CCC(C2)C1(C)C (single isomer, unassigned; (-)) = 3.53
CN(C)C1CC2CCC1(C)C2(C)C (racemic) = 3.96
CNC1C2CCC(C2)C1(C)C (racemic) = 3.01
CN(C)C1(C)C2CCC(C2)C1(C)C (racemic) = 3.96
CNC1CC2CCC1C2 (racemic) = 1.97
CNC1CC2CCC1(C)C2(C)C (racemic) = 3.53

Could you now consider this next molecule?
So what's the measured logP for this one? CNC1C2CCC(C2)C1C (racemic)
2.49
